The measurements presented in this section are drawn from paper PMC9482650.

biological target: Inadl_8, Q8NI35; experiment: holdup assay; set-up: key: below the threshold = too weak to quantify, mostly under pKd 3.1 to 4; settings: plain residues with an end cap or a label only (N-terminal biotin on a linker: ado-ado)
Sequence (Q8NI35 1425-1530): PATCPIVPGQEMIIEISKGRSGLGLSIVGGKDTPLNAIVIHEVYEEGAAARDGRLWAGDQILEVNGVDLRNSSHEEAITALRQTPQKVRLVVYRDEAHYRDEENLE
metricName: pKd

Below: 5 binders and their reported pKd.
[[record]]
binder = "GEDRSPPTAL [MKNK1, Q9BUB5]"
observed = "below the threshold"

[[record]]
binder = "PYSESDDDWC [CACNA1A, O00555]"
observed = "below the threshold"

[[record]]
binder = "ARGPPRESEV [FAM110D, Q8TAY7]"
observed = 3.81

[[record]]
binder = "EIPAQSPTCV [FZD10, Q9ULW2]"
observed = 4.35

[[record]]
binder = "NNNVVKVDSV [MTNR1A, P48039]"
observed = 4.22


Fill in: pKd of PSVGSKKTVL [REELD1, A0A1B0GV85] is ___ below the threshold

Item TGLWKHETTV [ADGRA3, Q8IWK6] has what recorded pKd? below the threshold

# pKd lookup, item NIAESLESLV [PTPRZ1, P23471] below the threshold

Would you kindly share the measured pKd for STKRKLASAV [NCF1, P14598] ? 4.46

Fill in the blank: the reported pKd of KSRVAFFEEL [NF2, P35240;P35240-1] is ____. below the threshold
